B1: library; numbered along this chain (parent)
chain: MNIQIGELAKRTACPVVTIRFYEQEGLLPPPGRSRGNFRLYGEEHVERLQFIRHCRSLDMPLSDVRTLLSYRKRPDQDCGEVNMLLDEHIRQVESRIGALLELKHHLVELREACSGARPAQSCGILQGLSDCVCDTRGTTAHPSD

Variants of: B1
protocol: sfGFP reporter fluorescence (15 h) (µM FITC); higher = stronger transcriptional activation
study.conditions: library round: Round 1; ligand: 30 µM Zn
Classification field: Met = sfGFP reporter fluorescence at or over 0.5; Not met = sfGFP reporter fluorescence under 0.5.

variant.name	group.label
P61N E94A	Met
D131S D135A	Not met
M84A G124A	Not met
G128I D135A	Met
M60L D64K G128T D131C	Met
P61D D64K	Met
D131H P143Y	Not met
R111V P143T	Not met
N83W P143A	Not met
N83T K104V	Not met
M60L D64K E81A R111A	Met
